target: Eukaryotic translation initiation factor 2-alpha kinase 1 (Homo sapiens) (UniProt Q9BQI3); assay: Activation of HRI in human CRL-2813-pBISA-DL(ATF-4) reporter cells assessed as concentration required to obtain F-luciferase expression/R-luciferase expression ratio 3
Sequence (Q9BQI3 whole entry): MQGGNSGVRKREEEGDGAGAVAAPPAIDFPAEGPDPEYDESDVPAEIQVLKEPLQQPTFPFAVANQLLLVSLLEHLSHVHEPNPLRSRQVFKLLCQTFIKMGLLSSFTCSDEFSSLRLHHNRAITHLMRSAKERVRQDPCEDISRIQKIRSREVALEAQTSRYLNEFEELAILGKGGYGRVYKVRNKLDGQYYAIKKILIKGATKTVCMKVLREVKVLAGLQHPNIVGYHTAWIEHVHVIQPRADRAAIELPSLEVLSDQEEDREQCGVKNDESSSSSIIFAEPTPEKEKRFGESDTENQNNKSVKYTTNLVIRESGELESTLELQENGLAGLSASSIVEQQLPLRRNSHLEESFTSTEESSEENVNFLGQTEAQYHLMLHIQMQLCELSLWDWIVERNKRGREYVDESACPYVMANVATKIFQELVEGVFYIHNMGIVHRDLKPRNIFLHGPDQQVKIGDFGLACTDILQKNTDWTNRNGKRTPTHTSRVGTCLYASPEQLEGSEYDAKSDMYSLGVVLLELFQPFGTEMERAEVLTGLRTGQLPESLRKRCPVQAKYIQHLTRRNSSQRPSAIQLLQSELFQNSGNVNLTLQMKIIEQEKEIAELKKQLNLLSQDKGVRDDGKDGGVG
MEASURED ENDPOINT: Activity (µM)

Use these answered entries as a reference point.
[[record]]
structure_notation = "COC(=O)c1ccc(NC(=O)N[C@H]2CC[C@H](Oc3ccc(F)cc3)CC2)cc1"
study_target = "Eukaryotic translation initiation factor 2-alpha kinase 1 (Homo sapiens) (UniProt Q9BQI3)"
measured_result = 12.8

[[record]]
structure_notation = "O=C(Nc1cccc(C(F)(F)F)c1)N[C@H]1CC[C@H](Oc2ccc(C(F)(F)F)cc2)CC1"
study_target = "Eukaryotic translation initiation factor 2-alpha kinase 1 (Homo sapiens) (UniProt Q9BQI3)"
measured_result = 0.3

[[record]]
structure_notation = "O=C(Nc1cccc(C(F)(F)F)c1)N[C@H]1CC[C@H](Oc2cccc(C(F)(F)F)c2)CC1"
study_target = "Eukaryotic translation initiation factor 2-alpha kinase 1 (Homo sapiens) (UniProt Q9BQI3)"
measured_result = 1.1

[[record]]
structure_notation = "O=C(Nc1cccc(F)c1)N[C@H]1CC[C@H](Oc2ccc(F)cc2)CC1"
study_target = "Eukaryotic translation initiation factor 2-alpha kinase 1 (Homo sapiens) (UniProt Q9BQI3)"
measured_result = 13.5

[[record]]
structure_notation = "O=C(Nc1cccc(C(F)(F)F)c1)N[C@H]1CC[C@H](Oc2cccc(F)c2)CC1"
study_target = "Eukaryotic translation initiation factor 2-alpha kinase 1 (Homo sapiens) (UniProt Q9BQI3)"
measured_result = 2.6

[[record]]
structure_notation = "O=C(Nc1cccc(C(F)(F)F)c1)N[C@H]1CC[C@H](Oc2ccccc2F)CC1"
study_target = "Eukaryotic translation initiation factor 2-alpha kinase 1 (Homo sapiens) (UniProt Q9BQI3)"
measured_result = 3.2

[[record]]
structure_notation = "COc1cccc(NC(=O)N[C@H]2CC[C@H](Oc3ccc(F)cc3)CC2)c1"
study_target = "Eukaryotic translation initiation factor 2-alpha kinase 1 (Homo sapiens) (UniProt Q9BQI3)"
measured_result = 26

[[record]]
structure_notation = "O=C(Nc1ccccc1I)N[C@H]1CC[C@H](Oc2ccc(F)cc2)CC1"
study_target = "Eukaryotic translation initiation factor 2-alpha kinase 1 (Homo sapiens) (UniProt Q9BQI3)"
measured_result = 18.5


(1) O=C(Nc1ccc(C(=O)O)cc1)N[C@H]1CC[C@H](Oc2ccc(F)cc2)CC1
(2) O=C(Nc1ccc(C(F)(F)F)cc1)N[C@H]1CC[C@H](Oc2ccc(F)cc2)CC1
(3) O=C(Nc1cccc(C(F)(F)F)c1)N[C@H]1CC[C@@H](Oc2ccc(F)cc2)CC1
(4) O=C(Nc1ccc([N+](=O)[O-])cc1)N[C@H]1CC[C@H](Oc2ccc(F)cc2)CC1
Would you mind ranking these compounds by ascending Activity? Provide your answer as the labels ordered per the instruction. 2, 3, 4, 1
